Readings of abundance fitness for the listed variants
B1: POU domain, class 2, transcription factor 2, residues 200 to 269; numbered along this chain, P09086 (parent)
chain: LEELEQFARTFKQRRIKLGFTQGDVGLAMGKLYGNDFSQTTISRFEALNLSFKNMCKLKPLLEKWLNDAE

# Variants of: B1
# Assay: abundance fitness (aPCA) (normalised: wild type 0, dead -1); higher = more abundant; growth selection in yeast, the domain comes from the species named
# Experimental Conditions: Homo sapiens
Write the value as a bare number.

Solved entries:
Changes: T10P
Value: -1
//
Changes: K53S
Value: 0.005
//
Changes: A47G
Value: -0.002
//
Changes: F7L
Value: -0.286
//
Changes: K53T
Value: 0.064

I would be grateful if you could share the reported abundance fitness for "S43W" .
-0.047

I would be grateful if you could share the reported abundance fitness for "K57C" .
-0.058

I would be grateful if you could share the reported abundance fitness for "L62K" .
-0.896

I would be grateful if you could share the reported abundance fitness for "L32R" .
-0.022

I would be grateful if you could share the reported abundance fitness for "E70Q" .
-0.07

I would be grateful if you could share the reported abundance fitness for "A47Y" .
-0.26

I would be grateful if you could share the reported abundance fitness for "N49F" .
-0.219

I would be grateful if you could share the reported abundance fitness for "I16E" .
0.048

I would be grateful if you could share the reported abundance fitness for "I42V" .
-0.033

I would be grateful if you could share the reported abundance fitness for "T21R" .
-0.14

I would be grateful if you could share the reported abundance fitness for "E2W" .
0.039

I would be grateful if you could share the reported abundance fitness for "N54E" .
0.058
